Origin of values: patent US10202390B2

For UniProt Q9NWZ3, measured pIC50 is reported for the entries below.
Sequence (Q9NWZ3 whole entry): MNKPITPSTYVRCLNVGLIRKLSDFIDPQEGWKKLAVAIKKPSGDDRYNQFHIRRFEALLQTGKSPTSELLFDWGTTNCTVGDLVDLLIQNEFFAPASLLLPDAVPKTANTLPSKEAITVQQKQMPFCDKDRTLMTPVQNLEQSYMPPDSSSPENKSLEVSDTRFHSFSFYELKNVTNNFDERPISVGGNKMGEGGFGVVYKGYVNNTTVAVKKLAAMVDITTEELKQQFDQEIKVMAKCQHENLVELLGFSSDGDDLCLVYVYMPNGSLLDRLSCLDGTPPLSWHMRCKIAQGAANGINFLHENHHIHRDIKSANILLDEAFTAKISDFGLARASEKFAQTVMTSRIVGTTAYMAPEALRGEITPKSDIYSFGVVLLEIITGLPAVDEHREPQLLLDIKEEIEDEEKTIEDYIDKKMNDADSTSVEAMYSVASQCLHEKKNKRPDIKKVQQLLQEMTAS
pIC50: −log10 of the molar value.
experimental_readout: pIC50

Below: 2 compounds and their reported pIC50.
smiles_representation: CC(C)Nc1cc(-c2cnc3cc(Cl)cnn23)ncc1-c1cnn(CC(C)(C)O)c1
pIC50: 6.40
//
smiles_representation: CC(C)Nc1cc(-c2cnc3cc(C#N)cnn23)ncc1-c1cnn(CC(F)(F)F)c1
pIC50: 7.37

A: CC(C)Nc1cc(-c2cnc3cc(C#N)cnn23)ncc1-c1cnn(C2CCOCC2)c1
B: CC(=O)N1CC(n2cc(-c3cnc(-c4cnc5cc(C#N)cnn45)cc3NC(C)C)nn2)C1
C: CC(C)(O)CCc1cn(-c2cnc(-c3cnn4cc(Cl)cnc34)cc2NC2CCOCC2)nn1
D: CC(C)Nc1cc(-c2cnc3cc(C#N)cnn23)ncc1-n1cc(CCC(C)(C)O)nn1
Arrange items by their pIC50 values in increasing order. Write the labels out in the order the request specifies.
A, C, D, B

1: CCCn1cc(-c2cnc(-c3cnc4cc(Cl)cnn34)cc2NC(C)C)nn1
2: CCCn1cc(-c2cnc(-c3cnc4cc(C#N)cnn34)cc2NC2CC2)nn1
Task for the reader: decide whether 1 or 2 has the larger pIC50. When you have decided, please share the label of that item.
2

P: CC(C)(O)CCc1cn(-c2cnc(-c3cnn4cc(Cl)cnc34)cc2NC2COC2)nn1
Q: CCCn1cc(-c2cnc(-c3cnc4cc(C#N)cnn34)cc2NC(C)C)cn1
R: CCCn1cc(-c2cnc(-c3cnc4cc(Cl)cnn34)cc2NC2CC2)nn1
Output the entries ranked by pIC50 from maximum down to minimum. Write the labels out in the order the request specifies.
R, P, Q
(R: 8.52, P: 8.05, Q: 7.74)
